tested on: Bacteria; test: Inhibition of bacterial IMP1 at 10 uM using CENTA as substrate by UV/Vis multi-plate spectrophotometric method relative to control
Respond with yes for inhibition values of 20% and above, no for values below.

1. Nc1c(-c2nnn[nH]2)c(-c2ccccc2)c(-c2ccccc2)n1Cc1ccccc1: no
2. N#Cc1c(-c2ccccc2)c(-c2ccccc2)n(Cc2ccccc2)c1NC(=O)C1CCCCC1: yes
3. N#Cc1c(-c2ccccc2)c(-c2ccccc2)n(Cc2ccccc2)c1N(C(=O)c1ccccc1)C(=O)c1ccccc1: yes
4. CC(=O)N(C(C)=O)c1c(C#N)c(-c2ccccc2)c(-c2ccccc2)n1Cc1ccccc1: no
5. CC(=O)Nc1c(C#N)c(-c2ccccc2)c(-c2ccccc2)n1Cc1ccccc1: no
6. CCCCCCCCCCCCCC(=O)Nc1c(C#N)c(-c2ccccc2)c(-c2ccccc2)n1Cc1ccccc1: no
7. N#Cc1c(-c2ccccc2)c(-c2ccccc2)n(Cc2ccccc2)c1NC(=O)c1ccccc1: yes

---

tested on: Bacteria; assay: Uncompetitive inhibition of bacterial IMP1 using CENTA as substrate by UV/Vis multi-plate spectrophotometric method
endpoint-label: log10 of Kiuc (log10 of the value in µM)

1. N#Cc1c(-c2ccccc2)c(-c2ccccc2)n(Cc2ccccc2)c1NC(=O)c1ccc(C(=O)c2ccccc2)cc1: 0.18
2. N#Cc1c(-c2ccccc2)c(-c2ccccc2)n(Cc2ccccc2)c1NC(=O)c1ccccc1: 0.63
3. Cc1cc(C)cc(C(=O)Nc2c(C#N)c(-c3ccccc3)c(-c3ccccc3)n2Cc2ccccc2)c1: 0.89
4. N#Cc1c(-c2ccccc2)c(-c2ccccc2)n(Cc2ccccc2)c1NC(=O)c1cccc([N+](=O)[O-])c1: 0.52
5. N#Cc1c(-c2ccccc2)c(-c2ccccc2)n(Cc2ccccc2)c1N(C(=O)c1ccccc1)C(=O)c1ccccc1: 1.74
